Measured Target: Vasopressin V2 receptor (Rattus norvegicus)
Sequence (Q00788 whole entry): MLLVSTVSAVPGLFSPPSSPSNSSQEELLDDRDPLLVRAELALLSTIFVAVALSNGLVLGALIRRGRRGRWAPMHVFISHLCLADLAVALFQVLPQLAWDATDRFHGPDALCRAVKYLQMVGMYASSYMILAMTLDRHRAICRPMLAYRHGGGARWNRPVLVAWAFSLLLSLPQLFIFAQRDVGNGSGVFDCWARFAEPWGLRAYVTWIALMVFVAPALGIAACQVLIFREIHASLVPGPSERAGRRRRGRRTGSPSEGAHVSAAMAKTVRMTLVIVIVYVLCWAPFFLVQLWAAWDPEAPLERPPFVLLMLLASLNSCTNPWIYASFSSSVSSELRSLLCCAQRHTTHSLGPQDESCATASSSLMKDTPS
pIC50: −log10 of the molar value.
Think of 6 as a floor: if pIC50 stands on it or above, it is Y; beneath it, N.

O=C(Nc1ccc(C(=O)N2Cc3cccn3Cc3ccccc32)cc1)c1ccccc1O: Y
Cc1ccccc1C(=O)Nc1ccc(C(=O)N2Cc3ccccc3Oc3ccccc32)cc1: N
O=C(Nc1ccc(C(=O)N2Cc3cccn3Cc3ccccc32)cc1)c1ccc(F)cc1Cl: Y
Cc1ccccc1C(=O)Nc1ccc(C(=O)N2Cc3ccccc3CCc3ccccc32)cc1: N

====

Measured Target: UniProt:P30560
Sequence (P30560 whole entry): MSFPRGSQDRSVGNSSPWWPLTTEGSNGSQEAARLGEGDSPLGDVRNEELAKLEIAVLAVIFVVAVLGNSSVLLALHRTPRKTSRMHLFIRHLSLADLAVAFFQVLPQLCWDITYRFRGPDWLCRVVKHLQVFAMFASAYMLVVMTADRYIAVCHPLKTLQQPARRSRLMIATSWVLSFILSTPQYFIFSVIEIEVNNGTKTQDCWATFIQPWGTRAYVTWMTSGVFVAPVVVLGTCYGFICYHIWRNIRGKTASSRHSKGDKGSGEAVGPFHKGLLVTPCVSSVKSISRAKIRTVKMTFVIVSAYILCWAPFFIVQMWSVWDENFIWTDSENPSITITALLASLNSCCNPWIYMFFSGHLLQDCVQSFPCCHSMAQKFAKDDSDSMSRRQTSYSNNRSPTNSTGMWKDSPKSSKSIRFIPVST
Test Name: Inhibition of [3H]AVP binding to Dawley rat hepatic vasopressin V1a receptor.
pIC50: −log10 of the molar value.
Think of 8 as a floor: if pIC50 stands on it or above, it is T; beneath it, F.

Cc1cccc(C(=O)Nc2ccc(C(=O)N3Cc4cccn4Cc4ccccc43)cc2)c1C: F
O=C(Nc1ccc(C(=O)N2Cc3cccn3Cc3ccccc32)cc1)c1ccccc1Br: T
Cc1ccccc1C(=O)Nc1ccc(C(=O)N2c3ccccc3CCc3ccccc32)cc1: F
Cc1ccccc1C(=O)Nc1ccc(C(=O)N2Cc3ccccc3Oc3ccccc32)cc1: F

Sourced from ChEMBL document CHEMBL1136085
